Data origin: patent US20090018134A1

Could you please report measured IC50 for the items listed next?
- system_under_test: mTOR (Homo sapiens)
- Construct: FLAG; made in house
- Sequence (P42345 1362-2549): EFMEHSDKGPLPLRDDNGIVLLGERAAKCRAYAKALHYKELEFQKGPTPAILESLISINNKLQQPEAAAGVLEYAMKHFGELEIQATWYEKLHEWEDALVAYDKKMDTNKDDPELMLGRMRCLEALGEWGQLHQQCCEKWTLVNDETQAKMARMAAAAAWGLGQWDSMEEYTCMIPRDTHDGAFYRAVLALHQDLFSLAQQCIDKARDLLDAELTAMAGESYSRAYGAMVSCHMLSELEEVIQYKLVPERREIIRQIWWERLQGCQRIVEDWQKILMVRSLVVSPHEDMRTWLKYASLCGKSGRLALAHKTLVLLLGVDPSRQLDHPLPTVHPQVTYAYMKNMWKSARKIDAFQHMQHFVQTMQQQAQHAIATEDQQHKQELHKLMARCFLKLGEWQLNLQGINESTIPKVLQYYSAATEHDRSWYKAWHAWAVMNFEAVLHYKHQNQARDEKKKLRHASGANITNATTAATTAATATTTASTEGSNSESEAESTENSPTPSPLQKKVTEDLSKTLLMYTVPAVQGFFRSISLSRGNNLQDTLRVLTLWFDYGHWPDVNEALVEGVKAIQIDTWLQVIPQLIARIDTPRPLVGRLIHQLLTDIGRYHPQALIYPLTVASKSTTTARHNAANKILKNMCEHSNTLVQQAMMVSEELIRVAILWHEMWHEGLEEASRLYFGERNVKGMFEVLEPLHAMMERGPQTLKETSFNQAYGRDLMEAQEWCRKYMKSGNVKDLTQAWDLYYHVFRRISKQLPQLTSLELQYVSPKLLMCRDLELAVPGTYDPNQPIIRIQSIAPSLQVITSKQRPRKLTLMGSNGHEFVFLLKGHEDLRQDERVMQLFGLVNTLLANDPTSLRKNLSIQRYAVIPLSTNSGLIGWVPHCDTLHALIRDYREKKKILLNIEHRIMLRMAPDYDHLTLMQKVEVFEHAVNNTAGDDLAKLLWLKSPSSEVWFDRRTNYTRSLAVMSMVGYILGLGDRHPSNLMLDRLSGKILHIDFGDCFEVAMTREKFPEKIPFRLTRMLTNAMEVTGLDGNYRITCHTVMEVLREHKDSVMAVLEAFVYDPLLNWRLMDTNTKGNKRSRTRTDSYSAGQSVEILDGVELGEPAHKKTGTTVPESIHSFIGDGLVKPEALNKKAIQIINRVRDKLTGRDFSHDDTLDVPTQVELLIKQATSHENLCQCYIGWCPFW
- assay_overview: In Vitro mTOR Kinase Assay (Echo), Test (a)(ii)
- Assay type: biochemical
- settings: table of enzyme assay Test (a)(ii); read-out: Test (a)(ii) IC50
- Text: (a)(ii) In Vitro mTOR Kinase Assay (Echo) The assay used AlphaScreen technology (Gray et al., Analytical Biochemistry, 2003, 313: 234-245) to determine the ability of test compounds to inhibit phosphorylation by recombinant mTOR. A C-terminal truncation of mTOR encompassing amino acid residues 1362 to 2549 of mTOR (EMBL Accession No. L34075) was stably expressed as a FLAG-tagged fusion in HEK293 cells as described by Vilella-Bach et al., Journal of Biochemistry, 1999, 274, 4266-4272. […]
One number for each entry, in nM.

Observe how each entry below is paired with its result.
C[C@H]1COCCN1c1cc(C2(S(=O)(=O)c3ccccc3)CC2)nc(-c2ccc(NC(=O)NCCF)cc2)n1 [Example 36ds] | 0.973
C[C@H]1COCCN1c1cc(C2(S(=O)(=O)CCCO)CC2)nc(-c2ccc(NC(=S)NC3CC3)cc2)n1 [Example 37h] | 19.8
O=C(Nc1ccc(-c2nc(N3CCOCC3)cc(C3(S(=O)(=O)c4ccccc4)CC3)n2)cc1)NC1CC1 [Example 36dc] | 9.89
Cn1cc(NC(=O)Nc2ccc(-c3nc(N4CCOCC4)cc(C4(S(=O)(=O)c5ccccc5)CC4)n3)cc2)cn1 [Example 36dj] | 8.91
CNC(=O)Nc1ccc(-c2nc(N3CCOC[C@@H]3C)cc(C3(S(=O)(=O)C4CC4)CC3)n2)cn1 [Example 14a] | 13.6
O=C(NCCO)Nc1ccc(-c2nc(N3CCOCC3)cc(C3(S(=O)(=O)c4ccncc4)CC3)n2)cc1 [Example 36ar] | 9.45

Attention now turns to another entry.
Prompt line: Record C[C@H]1COCCN1c1cc(C2(S(=O)(=O)c3ccccn3)CCC2)nc(-c2ccc(NC(=O)NCc3ncc[nH]3)cc2)n1 [Example 36ak] : what is its IC50 with mTOR (Homo sapiens)?
Response line: 2.45

====

- system_under_test: mTOR (Homo sapiens)
- Construct: FLAG; made in house
- assay_overview: In Vitro mTOR Kinase Assay (Echo), Test (a)(ii)
- Format: biochemical
- settings: table of enzyme assay Test (a)(ii); read-out: Test (a)(ii) IC50
- Source text: (a)(ii) In Vitro mTOR Kinase Assay (Echo) The assay used AlphaScreen technology (Gray et al., Analytical Biochemistry, 2003, 313: 234-245) to determine the ability of test compounds to inhibit phosphorylation by recombinant mTOR. A C-terminal truncation of mTOR encompassing amino acid residues 1362 to 2549 of mTOR (EMBL Accession No. L34075) was stably expressed as a FLAG-tagged fusion in HEK293 cells as described by Vilella-Bach et al., Journal of Biochemistry, 1999, 274, 4266-4272. […]
endpoint_name: IC50
Put your answer as a value accompanied by its unit after it.

Consider the following items and state reported IC50 for each.
1. Cc1noc(C)c1S(=O)(=O)C1(c2cc(N3CCOC[C@@H]3C)nc(-c3ccc(NC(=O)NCCO)cc3)n2)CC1 [Example 59b]
2. C[C@H]1COC[C@H](C)N1c1cc(C2(S(=O)(=O)c3ccccc3)CC2)nc(-c2ccc(NC(=O)NCCO)cc2)n1 [Example 93b]
3. C[C@H]1COCCN1c1cc(C2(S(=O)(=O)CCCOC(F)F)CC2)nc(-c2ccc(NC(=O)NCCF)cc2)n1 [Example 96a]
4. C[C@H]1COCCN1c1cc(C2(S(=O)(=O)C3CC3)CCCC2)nc(-c2ccc(NC(=O)NCCCO)cc2)n1 [Example 36m]
5. C[C@H]1COCCN1c1cc(C2(S(=O)(=O)CCCO)CC2)nc(-c2ccc(NC(=O)Nc3cnn(C)c3)cc2)n1 [Example 31j]
6. C[C@H]1COCCN1c1cc(C2(S(=O)(=O)C3CC3)CC2)nc(-c2cnc(NC(=O)NCCO)nc2)n1 [Example 14y]
7. CCCNC(=O)Nc1ccc(-c2nc(N3CCOC[C@@H]3C)cc(C3(S(=O)(=O)c4ccccc4)CC3)n2)cc1 [Example 36bi]

Response line:
["9.93 nM", "2.3 nM", "17.7 nM", "34.7 nM", "1.03 nM", "152 nM", "2.31 nM"]

For each entry beneath this line, provide reported IC50.
1. C[C@H]1COCCN1c1cc(C2(S(=O)(=O)c3cccnc3C(=O)N(C)C)CC2)nc(-c2ccc(NC(=O)NC3CC3)cc2)n1 [Example 50a]
2. C[C@H]1COCCN1c1cc(C2(S(C)(=O)=O)CCCC2)nc(-c2cnc(NC(=O)NC3CC3)nc2)n1 [Example 14s]
3. C[C@H]1COCCN1c1cc(C2(S(=O)(=O)c3ccc(F)cc3)CC2)nc(-c2ccc(NC(=O)NCCC#N)cc2)n1 [Example 36y]
4. C[C@H]1COCCN1c1cc(C2(S(=O)(=O)c3ccccc3)CC2)nc(-c2ccc(NC(=O)NCCCO)cc2)n1 [Example 36bl]

Response line:
1. 7.94 nM
2. 122 nM
3. 1.31 nM
4. 3.33 nM
